tested on: Gram positive anaerobic and facultative anaerobic pathogens; experiment: microbe, parasite or virus in culture; type: cell-based; settings: Clostridioides difficile
// MIC lookup, one value per entry
assay.metric: MIC (µg/mL)

>  <compound>
C[C@@H]1CN(c2c(F)c(N)c3c(=O)c(C(=O)O)cn(C4CC4)c3c2F)C[C@H](C)N1

>  <assay.metric>
MIC

>  <measured.number>
8

$$$$
>  <compound>
C[C@@H](O)[C@H]1C(=O)N2C(C(=O)O)=C(SCCN=CN)C[C@H]12

>  <assay.metric>
MIC

>  <measured.number>
4

$$$$
>  <compound>
N[C@@H]1[C@H]2CN(c3nc4c(cc3F)c(=O)c(C(=O)O)cn4-c3ccc(F)cc3F)C[C@@H]12

>  <assay.metric>
MIC

>  <measured.number>
1

$$$$
>  <compound>
CO/N=C1\CN(c2nc3c(cc2F)c(=O)c(C(=O)O)cn3C2CC2)CC1CN (racemic)

>  <assay.metric>
MIC

>  <measured.number>
2

$$$$
